Assay: Biotransformation and enzyme kinetics of filapixant in human liver microsomes
Format: in vitro ADME
Details: [3H]filapixant 1 µM, pooled human liver microsomes, 1 h of incubation, n = 1
Please go through the items and note down their Recovery of filapixant and metabolite formation, Liver Microsomes.

What the record says about Cc1cnc(-c2cc(O)cc(C(=O)N[C@H](C)c3cnc(C(F)(F)F)nc3)c2)s1 [M-6] : Recovery of filapixant and metabolite formation, Liver Microsomes is 4.4 % of radioactivity

What the record says about Cc1cnc(-c2cc(OC[C@H]3CN(C)C(=O)CO3)cc(C(=O)N[C@H](C)c3cnc(C(F)(F)F)nc3)c2)s1 [M-4] : Recovery of filapixant and metabolite formation, Liver Microsomes is 7.6 % of radioactivity

What the record says about CNC[C@@H](O)COc1cc(C(=O)N[C@H](C)c2cnc(C(F)(F)F)nc2)cc(-c2ncc(C)s2)c1 [M-8] : Recovery of filapixant and metabolite formation, Liver Microsomes is 2.4 % of radioactivity

What the record says about C[C@@H](NC(=O)c1cc(OC[C@H]2CN(C)CCO2)cc(-c2ncc(CO)s2)c1)c1cnc(C(F)(F)F)nc1 [M-3] : Recovery of filapixant and metabolite formation, Liver Microsomes is 0.9 % of radioactivity
